molecular target: human GPRC5D protein (human) (UniProt Q9NZD1); assay: FACS, subclone culture supernatant on NCI-H929 cells (medium alone: MFI 8242)
Sequence (Q9NZD1 whole entry): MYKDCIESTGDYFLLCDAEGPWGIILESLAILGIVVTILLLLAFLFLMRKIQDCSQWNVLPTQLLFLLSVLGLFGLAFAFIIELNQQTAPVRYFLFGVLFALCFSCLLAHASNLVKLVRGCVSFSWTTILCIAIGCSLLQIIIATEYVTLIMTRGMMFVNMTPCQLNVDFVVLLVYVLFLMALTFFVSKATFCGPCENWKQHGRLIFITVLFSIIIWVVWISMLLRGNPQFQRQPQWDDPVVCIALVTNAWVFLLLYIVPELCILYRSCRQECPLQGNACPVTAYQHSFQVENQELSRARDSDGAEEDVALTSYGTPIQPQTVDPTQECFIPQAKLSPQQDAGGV
endpoint_label: MFI
Give the value as a plain number.

See these solved cases before continuing.
binder	MFI
mu-105 (antibody, V domains shown) VH: EVQLQQSGPELVKPGASVKMSCKASGYTFTDYYMNWVKQSHGKSLEWIGYIYPNNGGTGYNQRFKGKATLTADKSSSTAYMELRSLTSEDSAVYYCARWGGTRLGYYAMDYWGQGTSVTVSS VL: DIVMTQSQKFMSTSVGDRVSVTCKASQNVGTNVVWYQQKPGQSPKLLIYWASTRHTGVPDRFTGSGSGTDFTLTISNVQSEDLADYFCQQYSRYPYTFGGGTKLEIK	13200
mu-128 (antibody, V domains shown) VH: DVQLVESGGGLVQPGGSRKVSCAASGFTFSSFGMHWVRQAPEKGLEWVAYISRGSSTIYYADTVKGRFTISRDNPKNTLFLQMTSLRSEDTAMYYCARSGYGSSSYYFDYWGQGTTLTVSS VL: ENVLTQSPAIMSASPREKVTMTCRASSSIRSSYLHWYQQKSGASPKLWIYSTSNLASGVPARFSGSGSGTSYSLTISSVEAEDAATYYCQQFSGYPLTFGGGTKLEIK	15700
mu-131 (antibody, V domains shown) VH: EVQLQQSGPELVKPGASVKMSCKASGYTFTNYVMHWVKQKPGQGLEWIGYFNPYNDGTNYNEKFKGKATLTSDKSSNTAYMELSSLTSEDSAVYYCARGGVRRYFDVWGAGTTVTVSS VL: DIQMTQSPSSLSASLGERVSLTCRASQDIGSNLNWLQLGPDGTIKRLIYATFSLDSGVPKRFSGSRSGSDYSLTISSLESEDFVDYYCQQYANFPPTFGGGTKLEIK	12800

As a next step, examine the binder that follows.
Task: Reported MFI for mu-89 (antibody, V domains shown) VH: EVQLVESGGDLVKPGGSLKLSCAASGFTFSSYGMSWVRQTPDKRLEWVATISSGGSYTYYPDSVKGRFTFSRDNAKNTLYLQMSSLKSEDTAMYYCVRQALRYHMDSWGQGTSVTVSS VL: DIVMTQSQKFMSTSVGDRVSVTCKASQNVGTNVAWYQQKPGQSPKALIYSASYRYSGVPDRFTGSGSGTDFTLTISNVQSEDLADFFCQQYYSYPWTFGGGTKLEIK : what is it?
Result: 11900
